The molecules listed here are annotated with their TD50.
# System: rodent lifetime carcinogenesis bioassay, tumor incidence TD50
# assay: carcinogenic potency in animals, long-term in vivo studies, CPDB compilation (AID 1745844)
# assayConditions: rat; strain F344/DuCrj; males; in feed; site: liver; lesion: several types; types named in the paper; dosed 104 weeks; study length 104 weeks
The source made the active and inactive calls. The rule behind the calls is not given here.

CC1=C(C(=O)OCCN(Cc2ccccc2)c2ccccc2)C(c2cccc([N+](=O)[O-])c2)C(P2(=O)OCC(C)(C)CO2)=C(C)N1 (configuration not stated) :: 2310 mg/kg/day (inactive)

Input `Nc1ccc2nc3ccccn3c2n1` . Output TD50: 52.1 mg/kg/day

====

# Tested on: rodent lifetime carcinogenesis bioassay, tumor incidence TD50
# assay: carcinogenic potency in animals, long-term in vivo studies, CPDB compilation (AID 1745844)
# assayConditions: mouse; strain B6C3F1; males; by gavage; site: lung; lesion: alveolar/bronchiolar adenoma + alveolar/bronchiolar carcinoma; dosed 90 weeks; study length 104 weeks
measureName: TD50
The reply should consist of the numeric value with the unit placed after it.

The molecule `ClCC(Cl)CCl` showed TD50 equal to 9.32 mg/kg/day

====

# System: rodent lifetime carcinogenesis bioassay, tumor incidence TD50
# assay: carcinogenic potency in animals, long-term in vivo studies, CPDB compilation (AID 1745844)
# assayConditions: mouse; strain B6C3F1; females; by gavage; site: forestomach; lesion: squamous-cell papilloma; dosed 102 weeks; study length 103 weeks
measureName: TD50

The recorded TD50 for entry `CC(C)=CCl` equals 373 mg/kg/day

====

# Test system: rodent lifetime carcinogenesis bioassay, tumor incidence TD50
# assay: carcinogenic potency in animals, long-term in vivo studies, CPDB compilation (AID 1745844)
# assayConditions: rat; strain Fischer 344; males; in feed; site: lung; lesion: alveolar/bronchiolar adenoma + alveolar/bronchiolar carcinoma; dosed 101 weeks; study length 101 weeks
measureName: TD50 (mg/kg/day)
Please state the figure in mg/kg/day; there is no need to write the unit.

Note to self: TD50 recorded for `Cc1cc(C)c(N)cc1C` was 180

====

# Test system: rodent lifetime carcinogenesis bioassay, tumor incidence TD50
# assay: carcinogenic potency in animals, long-term in vivo studies, CPDB compilation (AID 1745844)
# assayConditions: rat; strain Wistar; females; in feed; site: tongue; lesion: squamous-cell papilloma; dosed 78 weeks; study length 78 weeks
measureName: TD50 (mg/kg/day)
The reply should be a number in mg/kg/day, with the unit left off.

TD50 in this record for O=P(O)(OCC(Br)CBr)OCC(Br)CBr (stereo unspecified) : 107

====

# Tested on: rodent lifetime carcinogenesis bioassay, tumor incidence TD50
# assay: carcinogenic potency in animals, long-term in vivo studies, CPDB compilation (AID 1745844)
# assayConditions: rat; strain Fischer 344; males; in drinking water; site: liver; lesion: several types; types named in the paper; dosed 100 weeks; study length 115 weeks
measureName: TD50

Item: `O=NN1CCCCCCC1` | TD50: 0.198 mg/kg/day

====

# Tested on: rodent lifetime carcinogenesis bioassay, tumor incidence TD50
# assay: carcinogenic potency in animals, long-term in vivo studies, CPDB compilation (AID 1745844)
# assayConditions: mouse; strain B6AKF1; females; oral dosing; site: liver; lesion: hepatoma; dosed 68 weeks; study length 68 weeks
measureName: TD50

The reported value for ClC1(Cl)C2(Cl)C3(Cl)C4(Cl)C(Cl)(Cl)C5(Cl)C3(Cl)C1(Cl)C5(Cl)C24Cl (stereo unspecified) in terms of TD50 is 1.1 mg/kg/day

====

# System: rodent lifetime carcinogenesis bioassay, tumor incidence TD50
# assay: carcinogenic potency in animals, long-term in vivo studies, CPDB compilation (AID 1745844)
# assayConditions: rat; strain Fischer 344; males; in feed; site: Zymbal's gland; lesion: one or several types; types not named; dosed 104 weeks; study length 104 weeks
measureName: TD50 (mg/kg/day)
Give the quantity in mg/kg/day, number only.

In plain terms, `O=C(O)c1cc(=O)[nH]c(=O)[nH]1` has a documented TD50 of 2600

====

# System: rodent lifetime carcinogenesis bioassay, tumor incidence TD50
# assay: carcinogenic potency in animals, long-term in vivo studies, CPDB compilation (AID 1745844)
# assayConditions: rat; strain Wistar; females; in feed; site: forestomach; lesion: papilloma; dosed 78 weeks; study length 104 weeks
measureName: TD50
The answer consists of two parts: a number and, after it, its unit.

The measured TD50 associated with `NC(=O)C(=Cc1ccc([N+](=O)[O-])o1)c1ccco1` reads 424 mg/kg/day

====

# System: rodent lifetime carcinogenesis bioassay, tumor incidence TD50
# assay: carcinogenic potency in animals, long-term in vivo studies, CPDB compilation (AID 1745844)
# assayConditions: monkey; strain Cynomolgus [Macaca fascicularis]; both sexes; in feed; site: tongue; lesion: squamous-cell papilloma; dosed 928 weeks; study length 1135 weeks
measureName: TD50 (mg/kg/day)
Express it in mg/kg/day; write the number only.

// sample `CN(N=O)C(N)=O` , its TD50 was 7.95

====

# System: rodent lifetime carcinogenesis bioassay, tumor incidence TD50
# assay: carcinogenic potency in animals, long-term in vivo studies, CPDB compilation (AID 1745844)
# assayConditions: rat; strain Not specified; females; in feed; site: any site (literature study); lesion: several types; types named in the paper; dosed 64 weeks; study length 64 weeks
Calls of active or inactive are those of the source. No rule for the calls is given here.
measureName: TD50

O=S(=O)(O)c1ccc(N=Nc2c(O)ccc3cc(S(=O)(=O)O)ccc23)cc1 :: 87.4 mg/kg/day (inactive)

In the following, a different compound is considered.
Entry `O=S(=O)(O)c1ccc2c(N=Nc3ccc(S(=O)(=O)O)c4ccccc34)c(O)c(S(=O)(=O)O)cc2c1` ; assay system rodent lifetime carcinogenesis bioassay, tumor incidence TD50; TD50 recorded at 1640 mg/kg/day (inactive)

====

# Tested on: rodent lifetime carcinogenesis bioassay, tumor incidence TD50
# assay: carcinogenic potency in animals, long-term in vivo studies, CPDB compilation (AID 1745844)
# assayConditions: rat; strain Fischer 344; males; in feed; site: lung; lesion: alveolar/bronchiolar carcinoma; dosed 74 weeks; study length 101 weeks
measureName: TD50

Form: molecule = `O=[N+]([O-])c1ccc2c3c(cccc13)CC2` ; TD50 = 35.1 mg/kg/day

====

# Tested on: rodent lifetime carcinogenesis bioassay, tumor incidence TD50
# assay: carcinogenic potency in animals, long-term in vivo studies, CPDB compilation (AID 1745844)
# assayConditions: rat; strain MRC; females; by gavage; site: nasal and paranasal cavity; lesion: several types; types named in the paper; dosed 73 weeks; study length 77 weeks
measureName: TD50

Sample `CC(=O)CN(CC(C)=O)N=O` ; TD50 observed: 14 mg/kg/day

====

# Tested on: rodent lifetime carcinogenesis bioassay, tumor incidence TD50
# assay: carcinogenic potency in animals, long-term in vivo studies, CPDB compilation (AID 1745844)
# assayConditions: mouse; strain B6C3F1; males; in feed; site: lung; lesion: alveolar/bronchiolar adenoma + alveolar/bronchiolar carcinoma; dosed 80 weeks; study length 93 weeks
measureName: TD50 (mg/kg/day)
The reply should contain only the number, in mg/kg/day.

Measured TD50, ClC1C2(Cl)C3C4C5OC5C5C4C1(Cl)C(Cl)(C53)C2(Cl)Cl (stereo unspecified) : 0.465

====

# Tested on: rodent lifetime carcinogenesis bioassay, tumor incidence TD50
# assay: carcinogenic potency in animals, long-term in vivo studies, CPDB compilation (AID 1745844)
# assayConditions: mouse; strain Charles River CD1; males; in drinking water; site: all sites; lesion: hemangioma; dosed 104 weeks; study length 104 weeks
measureName: TD50 (mg/kg/day)
Supply the numeric figure in mg/kg/day, leaving out any unit text.

For reference, reported TD50 for `CN(C)N` stands at 339

====

# Test system: rodent lifetime carcinogenesis bioassay, tumor incidence TD50
# assay: carcinogenic potency in animals, long-term in vivo studies, CPDB compilation (AID 1745844)
# assayConditions: rat; strain F344/DuCrj; males; in feed; site: skin; lesion: squamous-cell carcinoma; dosed 56 weeks; study length 56 weeks
measureName: TD50 (mg/kg/day)
Just the number please, in mg/kg/day, no unit attached.

For `Cc1cnc2ccc3c(nc(N)n3C)c2n1` the molecule record lists TD50 as 59.2

====

# System: rodent lifetime carcinogenesis bioassay, tumor incidence TD50
# assay: carcinogenic potency in animals, long-term in vivo studies, CPDB compilation (AID 1745844)
# assayConditions: rat; strain Wistar albino; males; in drinking water; site: thyroid gland; lesion: adenoma; dosed 78 weeks; study length 78 weeks
measureName: TD50

Lab book: TD50 of `CCCc1cc(=O)[nH]c(=S)[nH]1` noted as 17.2 mg/kg/day

====

# Tested on: rodent lifetime carcinogenesis bioassay, tumor incidence TD50
# assay: carcinogenic potency in animals, long-term in vivo studies, CPDB compilation (AID 1745844)
# assayConditions: rat; strain Sprague-Dawley; males; inhaled; site: extrahepatic tissue; lesion: angioma; dosed 52 weeks; study length 131 weeks
measureName: TD50

Per the record, `C=CCl` has TD50 of 8180 mg/kg/day
